Target: human TLR7 (Homo sapiens, UniProt Q9NYK1)
Sequence (Q9NYK1 27-1049): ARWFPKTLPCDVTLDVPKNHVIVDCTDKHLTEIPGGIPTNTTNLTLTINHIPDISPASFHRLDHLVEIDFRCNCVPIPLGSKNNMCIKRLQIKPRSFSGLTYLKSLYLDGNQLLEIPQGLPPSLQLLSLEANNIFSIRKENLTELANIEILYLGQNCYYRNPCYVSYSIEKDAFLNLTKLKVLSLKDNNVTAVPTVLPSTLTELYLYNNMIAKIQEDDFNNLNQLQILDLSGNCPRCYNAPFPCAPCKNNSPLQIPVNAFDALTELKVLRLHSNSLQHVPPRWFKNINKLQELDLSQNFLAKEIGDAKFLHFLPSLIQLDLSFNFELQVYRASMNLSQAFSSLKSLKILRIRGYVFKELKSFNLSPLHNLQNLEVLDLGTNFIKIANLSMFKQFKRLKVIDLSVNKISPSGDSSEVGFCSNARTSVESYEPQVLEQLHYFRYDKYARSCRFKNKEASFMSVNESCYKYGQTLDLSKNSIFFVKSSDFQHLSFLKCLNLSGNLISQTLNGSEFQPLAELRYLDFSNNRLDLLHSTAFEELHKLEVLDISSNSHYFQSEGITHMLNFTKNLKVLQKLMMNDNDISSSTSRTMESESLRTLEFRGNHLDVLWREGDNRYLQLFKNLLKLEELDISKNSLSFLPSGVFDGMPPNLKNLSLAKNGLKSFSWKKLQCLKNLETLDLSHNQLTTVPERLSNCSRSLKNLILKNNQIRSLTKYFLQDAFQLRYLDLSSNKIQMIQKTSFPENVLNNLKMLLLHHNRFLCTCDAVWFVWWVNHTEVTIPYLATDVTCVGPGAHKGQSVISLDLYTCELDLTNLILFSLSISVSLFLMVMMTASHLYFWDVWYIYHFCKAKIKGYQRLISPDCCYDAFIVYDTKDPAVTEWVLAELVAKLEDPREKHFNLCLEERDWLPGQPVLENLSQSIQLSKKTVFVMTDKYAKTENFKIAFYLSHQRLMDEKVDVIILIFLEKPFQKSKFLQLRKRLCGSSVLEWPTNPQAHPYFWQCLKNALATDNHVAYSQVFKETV
Experiment: TLR7 inhibition reporter assay (HEK-Blue SEAP)
Details: HEK-Blue cells overexpressing human TLR7, gardiquimod 7.5 μM, 22 hour incubation
REPORTED_ENDPOINT: pIC50
Formally, pIC50 is defined as -log10 of the concentration c, with c in mol/L.

Measured pIC50, COc1cc(-c2cc3[nH]c(=O)n(C4CCC(N5CCC(S(C)(=O)=O)C5)CC4)c3cc2C(C)C)cn2ncnc12 (single isomer, unassigned) [Example 289] : 7.92

The measured pIC50 associated with COc1cc(-c2cc3[nH]c(=O)n(C4CCN(C)CC4)c3cc2C(C)C)cn2ncnc12 reads 8.67

Record COc1cc(-c2cc3[nH]c(=O)n([C@@H]4CCCN(C)C4)c3cc2C(F)(F)F)cn2ncnc12 . Reported pIC50: 8.54

Looking up COc1cc(-c2ccc3c(c2)[nH]c(=O)n3C2CCN(CC3CCOCC3)CC2)cn2ncnc12 , I found its pIC50 recorded as 5.95

Lab note: Cc1cc2c(cc1-c1cc(C)c3ncnn3c1)[nH]c(=O)n2[C@H]1CC[C@H](N)CC1 gave pIC50 of 7.39

GET /value?item= CCN1CCC[C@@H](n2c(=O)[nH]c3cc(-c4cc(OC)c5ncnn5c4)c(C(C)C)cc32)C1 [Example 138] &field=pIC50 returns 8.56

CCC(CC)CN1CCC[C@@H](n2c(=O)[nH]c3cc(-c4cc(OC)c5ncnn5c4)c(C(F)(F)F)cc32)C1 has a reported pIC50 of 7.19

# compound CCN1CCC[C@@H](n2c(=O)[nH]c3cc(-c4cc(OC)c5ncnn5c4)c(C(F)(F)F)cc32)C1 ; its pIC50 = 7.77

Looking up Cc1cc2c(cc1-c1cc(C)c3ncnn3c1)[nH]c(=O)n2[C@H]1CC[C@@H](NC2CCOCC2)CC1 , I see its pIC50 listed as 8.08

The compound listed as CCCN1CCC(n2c(=O)[nH]c3cc(-c4cc(C)c5ncnn5c4)c(C)cc32)CC1 shows pIC50 equal to 7.38

Briefly, pIC50 measured for Cc1cc(-c2ccc3c(c2)[nH]c(=O)n3C2CCN(C(C)C)CC2)cn2ncnc12 : 5.81

Summary for this compound, COc1cc(-c2cc3[nH]c(=O)n([C@H]4CC[C@@H](N(C)C)CC4)c3cc2C(C)C)cn2ncnc12 : pIC50 is 8.83

Reported pIC50 ( COc1cc(-c2cc3[nH]c(=O)n([C@@H]4CCCNC4)c3cc2C)cn2ncnc12 ) = 7.37

Record summary for COc1cc(-c2cc3[nH]c(=O)n([C@H]4CCCN(CCS(C)(=O)=O)C4)c3cc2C(C)C)cn2ncnc12 : reported pIC50 = 6.86

Input Cc1cc2c(cc1-c1cc(C)c3ncnn3c1)[nH]c(=O)n2C1CCNCC1 . Output pIC50: 6.46

Reported pIC50 for COc1c(C)c(-c2cc3[nH]c(=O)n(C4CCC(N5CC6(COC6)C5)CC4)c3cc2C(C)C)cn2ncnc12 (single isomer, unassigned) [Example 270] was 7.71

// pIC50 value for COc1cc(-c2cc3[nH]c(=O)n([C@H]4CCCN(CC5CC5)C4)c3cc2C(C)C)cn2ncnc12 [Example 127] : 7.84

Lab book: pIC50 of Cc1c(-c2cc3[nH]c(=O)n([C@@H]4CCCN(CC(C)(C)C)C4)c3cc2C(C)C)cn2ncnc2c1C noted as 8.26

Sure, the documented pIC50 for Cc1c(-c2cc3[nH]c(=O)n([C@@H]4CCCN(CC5CCOCC5)C4)c3cc2C(C)C)cn2ncnc2c1C is 8.40

The measured pIC50 associated with CCCN1CCC[C@@H](n2c(=O)[nH]c3cc(-c4cc(OC)c5ncnn5c4)c(C(C)C)cc32)C1 reads 8.70

Entry COc1cc(-c2cc3[nH]c(=O)n(C4CCN(C5CCC5)CC4)c3cc2C(C)C)cn2ncnc12 — recorded pIC50 = 7.75

Kindly note the recorded pIC50 for CNC(=O)CN1CCC(n2c(=O)[nH]c3cc(-c4cc(C)c5ncnn5c4)c(C)cc32)CC1 , which is 6.48

// Cc1c(-c2cc3[nH]c(=O)n(C4CCC(N5CCC6(CC5)COC6)CC4)c3cc2C(C)C)cn2ncnc2c1C (single isomer, unassigned) [Example 282] : pIC50 value = 8.00

Given item CCC(CC)CN1CCC[C@@H](n2c(=O)[nH]c3cc(-c4cc(OC)c5ncnn5c4)c(C)cc32)C1 , the value recorded as its pIC50 is 7.49

Quick note, pIC50 for COc1cc(-c2cc3[nH]c(=O)n(C4CCN(C)CC4)c3cc2C)cn2ncnc12 landed at 7.42

For COc1cc(-c2cc3[nH]c(=O)n([C@H]4CC[C@H](NC5COC5)CC4)c3cc2C(C)C)cn2ncnc12 the compound record lists pIC50 as 8.68

Looking up COCCN1CCC[C@@H](n2c(=O)[nH]c3cc(-c4cc(OC)c5ncnn5c4)c(C(F)(F)F)cc32)C1 , I found its pIC50 recorded as 7.58

The value of pIC50 measured for the compound COc1c(C)c(-c2cc3[nH]c(=O)n(C4CCC(N5CC(F)C5)CC4)c3cc2C(C)C)cn2ncnc12 (single isomer, unassigned) [Example 264] turned out to be 7.55

What the record says about COCCN1CCC[C@@H](n2c(=O)[nH]c3cc(-c4cc(OC)c5ncnn5c4)c(C(C)C)cc32)C1 [Example 226] : pIC50 is 8.95

* * *

Provide the recorded log10 of IC50 for the entries that follow.
Target: UniProt:Q9NR96
Sequence (Q9NR96 26-1032): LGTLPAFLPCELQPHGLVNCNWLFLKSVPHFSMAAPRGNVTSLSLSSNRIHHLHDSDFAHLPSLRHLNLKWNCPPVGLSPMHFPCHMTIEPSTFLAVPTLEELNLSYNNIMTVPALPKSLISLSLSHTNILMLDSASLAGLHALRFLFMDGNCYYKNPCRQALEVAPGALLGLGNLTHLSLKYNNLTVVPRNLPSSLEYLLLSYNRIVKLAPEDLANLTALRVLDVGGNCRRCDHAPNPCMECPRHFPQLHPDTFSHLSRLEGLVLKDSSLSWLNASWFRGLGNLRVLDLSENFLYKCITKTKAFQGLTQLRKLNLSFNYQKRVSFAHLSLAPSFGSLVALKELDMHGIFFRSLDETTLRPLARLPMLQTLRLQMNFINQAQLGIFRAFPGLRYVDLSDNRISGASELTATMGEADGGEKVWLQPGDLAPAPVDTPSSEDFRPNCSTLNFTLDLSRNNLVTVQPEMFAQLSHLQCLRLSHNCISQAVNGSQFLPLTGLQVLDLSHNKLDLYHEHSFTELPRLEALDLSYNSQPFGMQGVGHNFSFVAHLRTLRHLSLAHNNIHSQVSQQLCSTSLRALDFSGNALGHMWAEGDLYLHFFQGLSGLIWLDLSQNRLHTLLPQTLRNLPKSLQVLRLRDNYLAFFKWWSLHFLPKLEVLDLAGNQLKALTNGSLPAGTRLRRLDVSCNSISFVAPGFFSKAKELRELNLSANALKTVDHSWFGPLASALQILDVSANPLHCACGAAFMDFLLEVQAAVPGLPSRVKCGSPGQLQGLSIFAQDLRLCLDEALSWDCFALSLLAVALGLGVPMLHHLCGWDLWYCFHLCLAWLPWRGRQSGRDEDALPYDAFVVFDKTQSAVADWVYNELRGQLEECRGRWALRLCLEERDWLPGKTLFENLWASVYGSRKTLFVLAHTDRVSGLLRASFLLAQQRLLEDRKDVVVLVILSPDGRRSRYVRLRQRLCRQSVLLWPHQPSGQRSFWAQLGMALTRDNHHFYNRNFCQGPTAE
Experiment: TLR9 inhibition reporter assay (HEK-Blue SEAP)
Conditions: HEK-Blue cells overexpressing human TLR9, ODN2006 5 nM, 22 hour incubation
Description: TLR7/8/9 Inhibition Reporter Assays HEK-Blue™-cells (Invivogen) overexpressing human TLR7, TLR8 or TLR9 receptors were used for screening inhibitors of these receptors using an inducible SEAP (secreted embryonic alkaline phosphatase) reporter gene under the control of the IFN-β minimal promoter fused to five NF-κB and AP-1-binding sites. […]
// do not treat as linear: log10 of IC50, unit µM

Record Cc1cc2c(cc1-c1cc(C)c3ncnn3c1)[nH]c(=O)n2[C@H]1CCCN(CC(=O)N(C)C)C1 [Example 93] . Reported log10 of IC50: 1.10

For record CCc1cc2c(cc1-c1cc(OC)c3ncnn3c1)[nH]c(=O)n2[C@@H]1CCCN(CC(C)(C)C)C1 [Example 180] the listed log10 of IC50 is 1.01

Measured log10 of IC50 of CCCN1CCC[C@@H](n2c(=O)[nH]c3cc(-c4cc(C)c5ncnn5c4)c(C)cc32)C1 [Example 42] : 1.02

COc1cc(-c2cc3[nH]c(=O)n(C4CCN(C(=O)CN(C)C)CC4)c3cc2C)cn2ncnc12 [Example 100] has a reported log10 of IC50 of 0.22

Sample CNC(=O)CN1CCC(n2c(=O)[nH]c3cc(-c4cc(OC)c5ncnn5c4)c(C)cc32)CC1 [Example 87] ; log10 of IC50 observed: 1.35

According to the records, this compound COc1cc(-c2cc3[nH]c(=O)n(C4CCC(N5CC6(C5)CS(=O)(=O)C6)CC4)c3cc2C(C)C)cn2ncnc12 (single isomer, unassigned) [Example 245] displays log10 of IC50 of 1.24

Notebook: CCN1CCC[C@@H](n2c(=O)[nH]c3cc(-c4cc(OC)c5ncnn5c4)c(C(C)C)cc32)C1 (single isomer, unassigned) [Example 144] , log10 of IC50 read as 1.15
